Reference source for all entries: patent US9012431B2

ASSAY_INFO: Pharmacokinetic analysis in the rat
Format: in vivo
RUN_PARAMETERS: plasma, oral dosing at 100 mg/kg
ASSAY_METRIC: bioavailability (%)
# value in %; strip the unit string

bioavailability recorded for this compound, `N#Cc1ccc(Oc2ccc3c(c2)COB3O)cc1C#N` , is 7

---

Tested on: CD-1 (Crl.) derived male mice
ASSAY_INFO: Phorbol Ester Induced Mouse Ear Edema Model
Assay type: in vivo
RUN_PARAMETERS: topical, 6 h, 1 mg/ear × 2 topical, 95% Ethanol, ear swelling 6 hours after PMA
Procedure: 1. In Vivo Anti-Inflammation Activity in Phorbol Ester Induced Mouse Ear Edema Model […] Dexamethasone (1 mg/ear×2) used as the positive control was administered topically to test animals using the same application schedule. Ear swelling was then measured by a Dyer model micrometer gauge at 6 hours after PMA application as an index of inflammation. […]
ASSAY_METRIC: inhibition in vivo at 1 mg

Here is how some compounds turned out for inhibition in vivo at 1 mg.
* N#Cc1ccc(Oc2ccc3c(c2)COB3O)nc1N1CCOCC1 | 30 to 60%
* CCOc1cc(Oc2ccc3c(c2)COB3O)ccc1C#N | < 30%
* COCCNc1nc(Oc2ccc3c(c2)COB3O)ccc1C#N | < 30%

Continue with the next compound.
inhibition in vivo at 1 mg recorded for this compound, `N#Cc1ccc(Oc2ccc3c(c2)COB3O)c(O)c1` , is < 30%
